test system: RXF 393 renal; test: NCI tumour cell line growth inhibition, 48 h
Listed compounds paired with reported TGI

Solved cases (2 shown):
compound=O=C(O)CN1CCN(CC(=O)O)CCN(CC(=O)O)CCN(CC(=O)O)CC1 reported_measurement="> 100 µM"
compound=O=C(/C=C/c1ccc(O)cc1)NCCc1ccc(O)cc1 reported_measurement="> 12.5 µM"

Q: Answer with reported TGI of COc1ccc2ccc([Se]c3ccc4ccc(OC)cc4c3)cc2c1
Ans: > 100 µM

Q: Answer with reported TGI of CC1(O)/C(=N/O)CC2CC1C2(C)C (stereo not given)
Ans: > 100 µM

Q: Answer with reported TGI of O=c1c2cccnc2nc2ccc3c[nH][nH]c3c12
Ans: > 10 µM

Q: Answer with reported TGI of CCCNC(=S)/N=C\c1c(O)c2ccccc2oc1=O
Ans: > 100 µM

Hey, just so you know, these numbers are from PubChem BioAssay (NCI).
